Please respond with reported recombinant UMI read abundance (log10) for every item in the list.
Experiment: recombinant UMI read abundance after kanamycin selection (control-corrected) (log10(CPM+1)); higher = more efficient recombination; extreme values may be limits of the assay; sequences stand for … in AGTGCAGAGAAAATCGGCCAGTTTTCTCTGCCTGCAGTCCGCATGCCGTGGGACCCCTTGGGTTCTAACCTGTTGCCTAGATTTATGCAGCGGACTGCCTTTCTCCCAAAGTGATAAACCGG…AGGTTGGTTTCACT; site = the 11-nt donor;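 also: IS621 bridge recombinase in Escherichia coli cells against a fixed T5 target plasmid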
Give bare numbers.

* TCACGCGCATGGACCGGTTTTCCCGGTAATCCGTATTTGAA (site TCACGCGCTTT) | 1.05

Here are 4 sequences. What values of recombinant UMI read abundance (log10) were reported for them?
1. TTCTCTTCATGGACCGGTTTTCCCGGTAATCCGTATTTGTG (site TTCTCTTCTCA)
2. AATGATGCATGGACCGGTTTTCCCGGTAATCCGTATTTGGA (site AATAATGCTTC)
3. GCCACGCCATGGACCGGTTTTCCCGGTAATCCGTATTTGCA (site GCCACGCCTTG)
4. AGCTTTTCATGGACCGGTTTTCCCGGTAATCCGTATTTGAC (site AGCCTTTCTGT)

Found:
0.00971
1.08
1.36
0

Fill in recombinant UMI read abundance (log10) for each of the 8 sequences listed.
1. TATAATTCATGGACCGGTTTTCCCGGTAATCCGTATTTGAC (site TATAATTCTGT)
2. CACTTGACATGGACCGGTTTTCCCGGTAATCCGTATTTGCT (site TACTTGACTAG)
3. CCGTTACCATGGACCGGTTTTCCCGGTAATCCGTATTTGTG (site CCGTTAACTCA)
4. CTATCCTCATGGACCGGTTTTCCCGGTAATCCGTATTTGAA (site CTATCCTCTTT)
5. GGCCACGCATGGACCGGTTTTCCCGGTAATCCGTATTTGTT (site GGCCACTCTAA)
6. ATAGTATCATGGACCGGTTTTCCCGGTAATCCGTATTTGAC (site TTAGTATCTGT)
7. TAAAGTGCATGGACCGGTTTTCCCGGTAATCCGTATTTGTA (site TAAAGTCCTTA)
8. GCATCGGCATGGACCGGTTTTCCCGGTAATCCGTATTTGAC (site GCATCGGCTGT)

Found:
[0.209, 0.365, 0.00404, 2.6, 0.0156, 2.66, 0.72, 2.09]

Give recombinant UMI read abundance (log10) for each of the items listed below.
1. CCATACCCATGGACCGGTTTTCCCGGTAATCCGTATTTGTG (site CCATACCCTCA)
2. ACCGTAGCATGGACCGGTTTTCCCGGTAATCCGTATTTGTG (site ACCGTAGCTCA)
3. TACGTTTCATGGACCGGTTTTCCCGGTAATCCGTATTTGCC (site TACGTTTCTGG)
4. CCTTTAGCATGGACCGGTTTTCCCGGTAATCCGTATTTGTG (site CCGTTAGCTCA)
5. GCTACTGCATGGACCGGTTTTCCCGGTAATCCGTATTTGCC (site GCTACTTCTGG)

Found:
0.00448
0.533
1.7
0.00885
0
